# Tested on: RBM10 RRM1-ZnF (GST-tagged construct);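 also: 20 pmol protein with 1.5 nmol RNA pool for 30 min at 4°C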
# Experiment Summary: RNAcompete 7-mer binding Z-score; higher = stronger binding preference
The full ranking holds about 16,000 sequences; the median of “Z-score” is about -0.37, and the highest 2% start at about 3.2. What follows is part of a selection rich in the highest values, with near analogues and random picks from the rest.
Measured Property: RNAcompete 7-mer binding Z-score
Form rule: numeric answer, no unit written next to it.

Some sequences with known RNAcompete 7-mer binding Z-score results, for comparison:
{"Residue Sequence": "GGGGGAG", "Assay Value": 3.22}
{"Residue Sequence": "ACCGGGU", "Assay Value": 0.631}
{"Residue Sequence": "GAGGCAC", "Assay Value": 0.628}
{"Residue Sequence": "GCGGUGA", "Assay Value": 1.2}

The recorded RNAcompete 7-mer binding Z-score for `UAGGGGG` is 3.97

The reported RNAcompete 7-mer binding Z-score of the sequence `CUGGAUC` was -0.311

# RNAcompete 7-mer binding Z-score of `ACGGUGG` = 2.76

`AGGGAAU` yielded RNAcompete 7-mer binding Z-score of 3.05

The sequence listed as `ACGGGGC` shows RNAcompete 7-mer binding Z-score equal to 2.26

Entry `GUCCGAC` ; RNAcompete 7-mer binding Z-score = -0.662

# RNAcompete 7-mer binding Z-score of `GAAGGAC` = 2.33

Entry `UGGGGAG` — recorded RNAcompete 7-mer binding Z-score = 3.36

Just so you know, measured RNAcompete 7-mer binding Z-score for `AGGGCAG` came out at 2.11

====

# RNAcompete 7-mer binding Z-score per record follows
# Tested on: RBM10 RRM1-ZnF (GST-tagged construct);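 also: 20 pmol protein with 1.5 nmol RNA pool for 30 min at 4°C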
# Experiment Summary: RNAcompete 7-mer binding Z-score; higher = stronger binding preference
In all, about 16,000 sequences were measured (“Z-score”: median about -0.37, highest 2% from about 3.2 on). Many of the other results were omitted from the sample, so the highest values are more common in it than they were.
The response must contain the number and no unit.

Here are 6 sequences together with their reported answers.
{"Residue Sequence": "UUGUUUG", "RNAcompete 7-mer binding Z-score": 0.0138}
{"Residue Sequence": "UCAUCUG", "RNAcompete 7-mer binding Z-score": -0.844}
{"Residue Sequence": "AAGGCCA", "RNAcompete 7-mer binding Z-score": -0.00896}
{"Residue Sequence": "AAACGGU", "RNAcompete 7-mer binding Z-score": 1.16}
{"Residue Sequence": "AUAUUAU", "RNAcompete 7-mer binding Z-score": -0.402}
{"Residue Sequence": "UCGCACU", "RNAcompete 7-mer binding Z-score": -0.565}

Given item `UUUCGUA` , the value recorded as its RNAcompete 7-mer binding Z-score is -0.779

According to the records, this sequence `GUGAGGA` displays RNAcompete 7-mer binding Z-score of 2.69

For `UCCAGUU` the sequence record lists RNAcompete 7-mer binding Z-score as -0.639

For reference, reported RNAcompete 7-mer binding Z-score for `CUGAAUG` stands at -0.285

Form: sequence = `GGGCGGG` ; RNAcompete 7-mer binding Z-score = 3.66

====

# System: RBM10 RRM1-ZnF (GST-tagged construct);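 also: 20 pmol protein with 1.5 nmol RNA pool for 30 min at 4°C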
# Experiment Summary: RNAcompete 7-mer binding Z-score; higher = stronger binding preference
Over roughly 16,000 sequences, “Z-score” has its median near -0.37; the highest 2% begin near 3.2. This is one part of a sample in which the highest values are shown more often than they occur.
// reported RNAcompete 7-mer binding Z-score per item
Respond numerically, and do not add a unit to the figure.

Some solved cases for reference:
{"Residue Sequence": "AGAGCGG", "Assay Value": 1.43}
{"Residue Sequence": "GGUCGGU", "Assay Value": 1.24}
{"Residue Sequence": "AGGCGCA", "Assay Value": 0.0528}
{"Residue Sequence": "GGAGCGG", "Assay Value": 4.52}
{"Residue Sequence": "AGAGUGA", "Assay Value": 0.81}
{"Residue Sequence": "CUGGGUG", "Assay Value": 1.83}
{"Residue Sequence": "UGGGAUU", "Assay Value": 1.9}
{"Residue Sequence": "GACUAUA", "Assay Value": -0.542}

Item: `GAUAUAU` | System: RBM10 RRM1-ZnF (GST-tagged construct) | RNAcompete 7-mer binding Z-score: -0.178

Response field RNAcompete 7-mer binding Z-score (RBM10 RRM1-ZnF (GST-tagged construct)) for item `CGGGAUG` : 2.48

Entry `GGAGCGA` , RBM10 RRM1-ZnF (GST-tagged construct) data, RNAcompete 7-mer binding Z-score value: 2.71

// data source = the supplement of paper PMC5499739
